Where these numbers come from: the RNAGym collection of RNA variant scans (doi:10.7554/elife.80360)

B1: Hairpin Ribozyme (parent)
chain: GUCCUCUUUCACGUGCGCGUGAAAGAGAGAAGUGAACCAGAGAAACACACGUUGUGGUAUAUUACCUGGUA

# Variants of: B1
# Method description: self-cleavage, relative activity (ratio to wild type); higher = more cleavage; co-transcriptional
Lab note: anything with self-cleavage at or over 0.2 counts as true; the rest go in false.

>>> discrete_label("GUCUUCUUUCACGUGCGCGUGAAAGAGAGAAGUGAACCAGAGAAACGCACGUUGUGGUAUAUUACCUGGUA")
"false"
>>> discrete_label("GUCCUUUUUCACGUGCGCGUGAAAGAGAGAAGUGAACCAGAGAAACACACGUUGUGGUAUCUUACCUGGUA")
"true"
>>> discrete_label("GUCCUCGAUCACGUGCGCGUGAAAGAGAGAAGUGAACCAGAGAAACACACGUUGUGGUAUAUUACCUGGUA")
"true"
>>> discrete_label("GUCCUCUUUCACGUGCGCGUGAAAGAGAGAAGUGAACCAGAGAAACACACGUUGUGGCAUAGUACCUGGUA")
"true"
>>> discrete_label("GUCCUCUAUCACGUGCGCGUGAAAGAGAGAAGUGAACCAGAGAAACACACGUUGUGGUAUAUUACCUGGUU")
"true"
>>> discrete_label("GUCCUCUUUCACGUGCGCGUGAAAGAGAGAAGUGAACCAGAGAAACACACGUUUUGGUAUAUUACCUGGUA")
"true"
>>> discrete_label("GUCCUCUUUCACGAGCGCGUGAAAGAGAGAAGUGAACCAGAGAAACACACGUUGUGGUAUAUUACAUGGUA")
"false"
>>> discrete_label("GUCCUCUUUCACUUGCGUGUGAAAGAGAGAAGUGAACCAGAGAAACACACGUUGUGGUAUAUUACCUGGUA")
"true"
>>> discrete_label("GUCCUCUUUCACGUGGGCGUGAAAGAGAGAAGUGAACCAUAGAAACACACGUUGUGGUAUAUUACCUGGUA")
"false"
>>> discrete_label("GUCCUCUUUCACGUGCGCGUGAAACAGAGAAGUGAAACAGAGAAACACACGUUGUGGUAUAUUACCUGGUA")
"true"
>>> discrete_label("GUCCUCUUUCACGUGAGCGUGUAAGAGAGAAGUGAACCAGAGAAACACACGUUGUGGUAUAUUACCUGGUA")
"true"
